For each entry below, report its Ki value.
Molecular target: UniProtKB O15530
Sequence (O15530 1-556): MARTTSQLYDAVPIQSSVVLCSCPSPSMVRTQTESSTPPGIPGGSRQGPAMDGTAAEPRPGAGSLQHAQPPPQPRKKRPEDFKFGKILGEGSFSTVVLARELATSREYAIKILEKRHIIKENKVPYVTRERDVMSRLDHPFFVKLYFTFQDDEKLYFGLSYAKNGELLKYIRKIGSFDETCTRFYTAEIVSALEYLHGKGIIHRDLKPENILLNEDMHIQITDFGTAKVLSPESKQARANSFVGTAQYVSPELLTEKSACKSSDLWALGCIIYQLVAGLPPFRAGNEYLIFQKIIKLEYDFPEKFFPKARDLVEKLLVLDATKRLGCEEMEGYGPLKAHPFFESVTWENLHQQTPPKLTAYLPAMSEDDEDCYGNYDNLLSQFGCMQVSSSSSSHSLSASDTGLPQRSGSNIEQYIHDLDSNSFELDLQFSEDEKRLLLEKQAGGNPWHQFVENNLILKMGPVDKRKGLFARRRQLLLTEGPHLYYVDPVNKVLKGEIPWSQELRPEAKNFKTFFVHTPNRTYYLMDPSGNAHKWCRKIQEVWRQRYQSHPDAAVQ

input: Which Ki value belongs to CCc1n[nH]c2ccc(NC(=O)C(CCN)c3ccc(Cl)c(Cl)c3)cc12 (stereo not shown) [Compound I-118] ?
output: 1000 to 3000 nM

input: Which Ki value belongs to N#Cc1cccc(Nc2n[nH]c3ccc(NC(=O)C(CCN)c4ccc(Cl)c(Cl)c4)cc23)c1 (stereo not shown) [Compound I-165] ?
output: < 1000 nM

input: Which Ki value belongs to CCOc1cccc(C(=O)Nc2n[nH]c3ccc(NC(=O)C(CCN)c4ccc(Cl)c(Cl)c4)cc23)c1 (stereo not shown) [Compound I-181] ?
output: < 1000 nM

input: Which Ki value belongs to CC(=O)O[C@@H](C(=O)Nc1ccc2[nH]ncc2c1)c1ccccc1 [Compound I-33] ?
output: > 3000 nM

The measured values listed here are drawn from patent US7041687B2.
